target: STING HAQ-variant (Homo sapiens, UniProt Q86WV6, G230A/H232R/R293Q/R71H); construct: parental THP1-Blue™ ISG cell lines (which express endogenously HAQ); host or cells: THP1-Blue ISG (parental, endogenous HAQ) or STING-KO clone re-transduced with HAQ (MSCV-ires-GFP-Blasti); assay: IRF-inducible SEAP reporter assay in THP1-Blue ISG cells, STING HAQ-variant; assay type: cell-based; conditions: STING HAQ-variant (parental or re-introduced), 24 hours incubation
Sequence (Q86WV6 whole entry R71H/G230A/H232R/R293Q): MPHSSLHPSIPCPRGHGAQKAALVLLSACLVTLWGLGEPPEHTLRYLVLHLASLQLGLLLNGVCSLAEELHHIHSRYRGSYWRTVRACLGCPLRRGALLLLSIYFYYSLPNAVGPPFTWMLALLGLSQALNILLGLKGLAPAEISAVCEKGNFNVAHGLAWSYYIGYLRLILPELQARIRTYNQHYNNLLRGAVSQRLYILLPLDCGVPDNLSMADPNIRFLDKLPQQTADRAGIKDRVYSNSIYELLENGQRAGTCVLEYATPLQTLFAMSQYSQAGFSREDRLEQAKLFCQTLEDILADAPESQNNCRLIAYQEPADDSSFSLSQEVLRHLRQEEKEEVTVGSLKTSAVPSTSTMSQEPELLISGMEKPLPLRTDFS
Measured EC50, listed per entry for reference.
measuredAttribute: EC50 (nM)

C#Cc1cccc2c(-c3cccc4nn(C)cc34)nn(-c3ccc(N4CC5C(C4)C5C(=O)O)nc3)c12 (stereo not drawn) [Example #74] :: 4300
CC(=O)N(C)C1CCN(c2ccc(-n3nc(-c4cccc5nn(C)cc45)c4cccc(C)c43)cn2)C1 (stereo not drawn) [Example #6] :: 3100
Cc1cccc2c(-c3cccc4nn(C)cc34)nn(-c3ccc(N4CCC(c5cnn(C)c5)CC4)nc3)c12 [compound 20] :: 2200
COC(=O)c1ccc2c(-c3cccc4nn(C)cc34)nn(-c3ccc(N4CCC(S(C)(=O)=O)CC4)nc3)c2c1C [compound 25] :: 200
Cc1cccc2c(-c3cccc4nn(C)cc34)nn(-c3ccc(N4CCC5(CC4)C(=O)N(C)C(=O)N5C)nc3)c12 [compound 9] :: 1000
Cc1cccc2c(-c3cccc4nn(C)cc34)nn(-c3ccc(N4CC5(COC5)C4)nc3)c12 [compound 3] :: 3000
Cc1cccc2c(-c3cccc4nn(C)cc34)nn(-c3ccc(N4CC5(CCS(=O)(=O)CC5)C4)nc3)c12 [compound 4] :: 1100
Cc1cccc2c(-c3cccc4nn(C)cc34)nn(-c3ccc(N4CC5(CN(C=O)C5)C4)nc3)c12 [compound 54] :: 2100
Cc1cccc2c(-c3cccc4nn(C)cc34)nn(-c3ccc(N4CCC(S(N)(=O)=O)CC4)nc3)c12 [Example #22] :: 700
COCCNc1ccc(-n2nc(-c3cccc4nn(C)cc34)c3cccc(C)c32)cn1 [compound 14] :: 6900
Cc1c(CO)ccc2c(-c3cccc4nn(C)cc34)nn(-c3ccc(N4CCC(S(C)(=O)=O)CC4)nc3)c12 [compound 75] :: 100
Cc1cccc2c(-c3cccc4nn(C)cc34)nn(-c3ccc(N4CCOCC4)nc3)c12 [compound 17] :: 6800
Cc1cccc2c(-c3cccc4c3OCO4)nn(-c3ccc(N4CC5C(C4)C5C(=O)O)nc3)c12 (stereo not drawn) [compound 30] :: 6100
Cc1cccc2c(-c3cccc4nn(C)cc34)nn(-c3ccc(N4CCN(CC(=O)O)C(=O)C4)nc3)c12 [compound 58] :: 6800
CCc1cccc2c(-c3cccc4nn(C)cc34)nn(-c3ccc(N4CC5C(C4)C5C(=O)O)nc3)c12 (stereo not drawn) [compound 65] :: 200

---

biological target: STING H232R-variant (Homo sapiens, UniProt Q86WV6, H232R); assay: IRF-inducible SEAP reporter assay in THP1-Blue ISG cells, STING H232R-variant; conditions: STING H232R-variant (WT), 24 hours incubation
Sequence (Q86WV6 whole entry H232R): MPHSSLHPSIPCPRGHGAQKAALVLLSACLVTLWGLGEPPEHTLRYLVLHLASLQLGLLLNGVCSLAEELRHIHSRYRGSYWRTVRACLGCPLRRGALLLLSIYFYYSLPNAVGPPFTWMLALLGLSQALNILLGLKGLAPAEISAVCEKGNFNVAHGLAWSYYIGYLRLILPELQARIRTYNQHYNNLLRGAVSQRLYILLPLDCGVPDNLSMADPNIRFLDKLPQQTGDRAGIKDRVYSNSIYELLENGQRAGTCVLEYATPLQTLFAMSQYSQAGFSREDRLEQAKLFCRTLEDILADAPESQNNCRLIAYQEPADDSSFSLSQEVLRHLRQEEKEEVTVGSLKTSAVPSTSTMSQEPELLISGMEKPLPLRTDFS
pEC50: −log10 of the molar value.
Measured pEC50, listed per entry for reference.
measuredAttribute: pEC50

Cc1cccc2c(-c3cccc4nn(C)cc34)nn(-c3ccc(N4CCC(S(N)(=O)=O)CC4)nc3)c12 [Example #22] :: 7.00
CCc1cccc2c(-c3cccc4nn(C)cc34)nn(-c3ccc(N4CC5C(C4)C5C(=O)O)nc3)c12 (stereo not drawn) [compound 65] :: 7.00
Cc1cccc2c(-c3cccc4nn(C)cc34)nn(-c3ccc(N4CCOCC4)nc3)c12 [compound 17] :: 5.68
CCc1cccc2c(-c3cccc4nn(C)cc34)nn(-c3ccc(N4CCC(C(=O)O)CC4)nc3)c12 [Example #66] :: 6.52
Cc1cccc2c(-c3cccc4nn(C)cc34)nn(-c3ccc(N4CC5(CCN(C=O)C5)C4)nc3)c12 [compound 53] :: 6.15
Cn1cc2c(-c3nn(-c4ccc(N5CC6C(C5)C6C(=O)O)nc4)c4c(Br)cccc34)cccc2n1 (stereo not drawn) [compound 64] :: 6.70
Cc1cccc2c(-c3cccc4nn(C)cc34)nn(-c3ccc(N4CCC(S(C)(=O)=O)CC4)nc3)c12 [compound 18] :: 6.70
Cc1cccc2c(-c3cccc4nn(C)cc34)nn(-c3ccc(N4CC5(CN(C=O)C5)C4)nc3)c12 [compound 54] :: 6.52
Cc1cc(C)c2c(c1)c(-c1cccc3nn(C)cc13)nn2-c1ccc(N2CC3C(C2)C3C(=O)O)nc1 (stereo not drawn) [compound 69] :: 6.52
COc1cccc2c(-c3cccc4nn(C)cc34)nn(-c3ccc(N4CC5C(C4)C5C(=O)O)nc3)c12 (stereo not drawn) [compound 29] :: 6.70
CC(=O)NC1C2CN(c3ccc(-n4nc(-c5cccc6nn(C)cc56)c5cccc(C)c54)cn3)CC21 (stereo not drawn) [compound 55] :: 6.10
Cc1cccc2c(-c3cccc4nn(C)cc34)nn(-c3ccc(N4CC5C(C4)C5C(=O)O)nc3)c12 (stereo not drawn) [Example #59] :: 7.00
Cc1cccc2c(-c3cccc4nn(C)cc34)nn(-c3ccc(N4CCC(C(=O)O)CC4)nc3)c12 [Example #57] :: 6.70
CC(=O)N1CCN(c2ccc(-n3nc(-c4cccc5nn(C)cc45)c4cccc(C)c43)cn2)CC1 [compound 15] :: 6.70
Cc1cccc2c(-c3cccc4nn(C)cc34)nn(-c3ccc(N4CCn5cncc5C4)nc3)c12 [compound 12] :: 6.40

---

molecular target: STING R232H-variant (Homo sapiens, UniProt Q86WV6); test: IRF-inducible SEAP reporter assay in THP1-Blue ISG cells, STING R232H-variant; conditions: 24 hours incubation
Sequence (Q86WV6 whole entry, stated change not applied): as the sequence (Q86WV6 whole entry H232R) above, with R232H counted along it
Measured log10(EC50), listed per entry for reference.
measuredAttribute: log10(EC50) (log10 of the value in nM)

Cc1cccc2c(-c3cccc4nn(C)cc34)nn(-c3ccc(N4CCC5(CC4)CNC5=O)nc3)c12 [compound 10] :: 2.70
Cc1cc2c(-c3nn(-c4ccc(N5CCC(C(=O)O)CC5)nc4)c4c(C)cccc34)cccc2cn1 [Example #61] :: 3.46
CC(=O)NC1C2CN(c3ccc(-n4nc(-c5cccc6nn(C)cc56)c5cccc(C)c54)cn3)CC21 (stereo not drawn) [compound 55] :: 2.85
Cc1cccc2c(-c3cccc4nn(C)cc34)nn(-c3ccc(N4CCOCC4)nc3)c12 [compound 17] :: 3.30
Cc1cc2c(-c3nn(-c4ccc(N5CC6C(C5)C6C(=O)O)nc4)c4c(C)cccc34)cccn2n1 (stereo not drawn) [compound 68] :: 2.85
Cc1cccc2c(-c3cccc4nn(C)cc34)nn(-c3ccc(N4CCn5cncc5C4)nc3)c12 [compound 12] :: 2.78
Cc1cccc2c(-c3cccc4nn(C)cc34)nn(-c3ccc(N4CCC5(CCC(=O)N5)CC4)nc3)c12 [Example #2] :: 1.70
Cc1cccc2c(-c3cccc4nn(C)cc34)nn(-c3ccc(N4CCC(NS(C)(=O)=O)CC4)nc3)c12 [compound 56] :: 2.90
Cc1cccc2c(-c3cccc4nn(C)cc34)nn(-c3ccc(N4CCC(S(C)(=O)=O)CC4)nc3)c12 [compound 18] :: 2.30
Cc1cccc2c(-c3cccc4nn(C)cc34)nn(-c3ccc(N4CCN(C(N)=O)CC4)nc3)c12 [Example #7] :: 2.30
CCc1cccc2c(-c3cccc4nn(C)cc34)nn(-c3ccc(N4CC5C(C4)C5C(=O)O)nc3)c12 (stereo not drawn) [compound 65] :: 2.00
Cc1c(CO)ccc2c(-c3cccc4nn(C)cc34)nn(-c3ccc(N4CCC(S(C)(=O)=O)CC4)nc3)c12 [compound 75] :: 1.70
Cc1cccc2c(-c3cccc4nn(C)cc34)nn(-c3ccc(N4CCN(C=O)CC4)nc3)c12 [compound 51] :: 1.70
Cc1cccc2c(-c3cccc4nn(C)cc34)nn(-c3ccc(N4CCC(C(=O)O)CC4)nc3)c12 [Example #57] :: 2.30
Cc1cccc2c(-c3cccc4nn(C)cc34)nn(-c3ccc(N4CC5(CCN(C=O)C5)C4)nc3)c12 [compound 53] :: 2.85
CC(=O)N1CCN(c2ccc(-n3nc(-c4cccc5nn(C)cc45)c4cccc(C)c43)cn2)CC1 [compound 15] :: 2.30
COC(=O)C1C2CN(c3ccc(-n4nc(-c5cccc6nn(C)cc56)c5cccc(C)c54)cn3)CC21 (stereo not drawn) [Example #1] :: 2.30
Cc1cccc2c(-c3cccc4nn(C)cc34)nn(-c3ccc(N4CC5C(C4)C5C(=O)O)nc3)c12 (stereo not drawn) [Example #59] :: 2.00

---

biological target: STING R232H-variant (Homo sapiens); assay: IRF-inducible SEAP reporter assay in THP1-Blue ISG cells, STING R232H-variant; conditions: 24 hours incubation
measuredAttribute: EC50

Cc1cccc2c(-c3cccc4nn(C)cc34)nn(-c3ccc(NCc4cncnc4)nc3)c12 :: 2300 nM
Cn1cc2c(-c3nn(-c4ccc(N5CC6C(C5)C6C(=O)O)nc4)c4c(Cl)cccc34)cccc2n1 (stereo not shown) :: 200 nM
Cc1cccc2c(-c3cccc4nn(C)cc34)nn(-c3ccc(N4CC5C(C4)C5C(N)=O)nc3)c12 (stereo not shown) :: 300 nM
Cc1cc(C)c2c(c1)c(-c1cccc3nn(C)cc13)nn2-c1ccc(N2CC3C(C2)C3C(=O)O)nc1 (stereo not shown) :: 300 nM
Cn1cc2c(-c3nn(-c4ccc(N5CC6C(C5)C6C(=O)O)nc4)c4c(Br)cccc34)cccc2n1 (stereo not shown) :: 600 nM
Cc1cccc2c(-c3cccc4nn(C)cc34)nn(-c3ccc(N4CCC5(CC4)C(=O)N(C)C(=O)N5C)nc3)c12 :: 200 nM
CCc1cccc2c(-c3cccc4nn(C)cc34)nn(-c3ccc(N4CCC(C(=O)O)CC4)nc3)c12 :: 200 nM
